# testedSystem: Neuronal acetylcholine receptor subunit alpha-7 (Rattus norvegicus)
# Sequence (Q05941 whole entry): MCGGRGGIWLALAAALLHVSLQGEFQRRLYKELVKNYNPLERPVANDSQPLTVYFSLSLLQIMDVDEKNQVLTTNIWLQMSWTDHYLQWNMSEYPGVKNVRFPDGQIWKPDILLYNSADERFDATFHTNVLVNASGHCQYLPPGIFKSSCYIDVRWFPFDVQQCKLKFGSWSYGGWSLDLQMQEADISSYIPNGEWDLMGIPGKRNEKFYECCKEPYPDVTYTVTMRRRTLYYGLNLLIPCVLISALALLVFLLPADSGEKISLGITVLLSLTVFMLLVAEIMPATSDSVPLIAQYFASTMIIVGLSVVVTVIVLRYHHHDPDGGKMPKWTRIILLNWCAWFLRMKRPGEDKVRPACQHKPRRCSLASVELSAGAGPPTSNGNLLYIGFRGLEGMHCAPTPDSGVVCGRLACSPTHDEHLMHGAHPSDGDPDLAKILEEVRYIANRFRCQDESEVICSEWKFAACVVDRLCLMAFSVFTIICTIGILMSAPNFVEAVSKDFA
# assayNotes: Displacement of [125I]alpha-bungarotoxin from alpha7 nAchR in rat frontal cortices

| compound | testedSystem | u | qualifierSymbol | Ki |
| --- | --- | --- | --- | --- |
| FCCc1ccc(-c2cn([C@H]3CN4CCC3CC4)nn2)cc1 | Neuronal acetylcholine receptor subunit alpha-7 (Rattus norvegicus) | nM | = | 230 |
| OC1(c2cn(-c3ccc(Br)cc3)nn2)CN2CCC1CC2 (stereo unspecified) | Neuronal acetylcholine receptor subunit alpha-7 (Rattus norvegicus) | nM | > | 1000 |
| OCCc1ccc(-c2cn([C@H]3CN4CCC3CC4)nn2)cc1 | Neuronal acetylcholine receptor subunit alpha-7 (Rattus norvegicus) | nM | = | 130 |
| OCCOc1ccc(-c2cn([C@H]3CN4CCC3CC4)nn2)cc1 | Neuronal acetylcholine receptor subunit alpha-7 (Rattus norvegicus) | nM | = | 215 |
| COc1ccc(-c2cn([C@H]3CN4CCC3CC4)nn2)cc1 | Neuronal acetylcholine receptor subunit alpha-7 (Rattus norvegicus) | nM | = | 11 |
| FCCOc1ccc(-c2cn([C@H]3CN4CCC3CC4)nn2)cc1 | Neuronal acetylcholine receptor subunit alpha-7 (Rattus norvegicus) | nM | = | 190 |
